Assay: Peak excitation/emission wavelengths and extinction coefficient in PBS
Type: physicochemical
Settings: excitation
propertyName: Peak Ex Wavelength (nm)

molecule: Cc1nnc(-c2cccc(-c3c(C)c4cc(F)c(O)c(F)c4oc3=O)c2)nn1 [HELIOS 370Me]
units: nm
Peak Ex Wavelength: 370
--
molecule: Cc1c(CC(=O)NCc2ccc(-c3nncnn3)cc2)c(=O)oc2c(F)c(O)c(F)cc12 [Marina Blue-Tz, reference compound]
units: nm
Peak Ex Wavelength: 362
--
molecule: Cc1nnc(-c2cccc(-c3c(C)c4cc5c(cc4oc3=O)NCCC5)c2)nn1 [HELIOS 388Me]
units: nm
Peak Ex Wavelength: 388
--
molecule: Cc1nnc(-c2cccc(-c3c(C)c4ccc(N)cc4oc3=O)c2)nn1 [HELIOS 347Me]
units: nm
Peak Ex Wavelength: 347
